These data points were gathered from ChEMBL document CHEMBL1158368.

- Test system: NCI-H460
- test protocol: Cytotoxicity against human NCI-H460 cells after 48 hrs by SRB assay
- Assay type: functional
- stated conditions: NCI-H460, 48 h
We begin with a simple list: items and their reported GI50.

{"columns": ["smiles repr", "result qualifier", "GI50 (µM)"],
 "data": [
  ["COc1ccc2c(c1)sc1c(=O)oc(-c3ccccc3F)c(I)c12", "=", 10.9],
  ["O=c1oc(-c2ccc(F)cc2)c(I)c2c1sc1ccccc12", "=", 35.8],
  ["COC(=O)c1sc2ccccc2c1C#Cc1ccc(F)cc1", "=", 56.2],
  ["O=c1oc(-c2ccccc2F)cc2c1sc1ccccc12", "=", 15.5],
  ["COC(=O)c1sc2cc(OC)ccc2c1C#Cc1ccccc1F", "=", 10.3],
  ["COc1ccc2c(c1)sc1c(=O)oc(-c3ccccc3)cc12", ">", 75],
  ["O=c1oc(-c2ccc(F)cc2)cc2c1sc1ccccc12", ">", 25]
]}
